- Assay Procedure: Pharmacokinetics in beagle dogs (20 mg/kg i.v.)
- Type: in vivo
- Experimental Parameters: dog, plasma, iv, read-out: mean Vss
Measured Metric: Vd (L/kg)
Numbers only, in L/kg.

Query: Need Vd, item Cn1c(COP(=O)(NCCBr)NCCBr)cnc1[N+](=O)[O-] [TH302]
Response: 1.98

====

- Assay Procedure: Pharmacokinetics in Sprague-Dawley rats (single dose i.v. and p.o.)
- Type: in vivo, male Sprague-Dawley rats
- Experimental Parameters: male, Sprague-Dawley, rat, plasma, iv, 5 mg/kg, rats, 5 mg/kg i.v. bolus, MEAN; read-out: AUC(0-t)
Measured Metric: AUC(0-t) (ng·h/mL)
Give bare numbers, in ng·h/mL.

Query: Need AUC(0-t), item Cn1c(COP(=O)(NCCBr)NCCBr)cnc1[N+](=O)[O-] [TH302]
Response: 799
